- Assay Comment: inhibitors of HIV fusion peptide binding, primary screen, biochemical, uHTS, fluorescence dequenching (AID 1986)
- Protocol Conditions: cell-free peptide binding, 30 min, at 20 µM, stronger effect = higher value
Among all 290,000 compounds or so, about 890 (0.31%) were called active. Only a selection was taken, and actives are over-represented in it overall.
Property: inhibition (%)

smiles_text=CCN(CC)C(=O)c1ccc(/C=C/c2c[nH]c3ccccc23)[n+](C)c1 property=inhibition unit_label=% observed_result=91.3
smiles_text=O=c1c2ccccc2nc(/C=C/c2c[nH]c3ccccc23)n1CCO property=inhibition unit_label=% observed_result=5.3
smiles_text=CC1=C(C#N)c2nc(N)c(C#N)c(C)c2/C1=C\c1ccc(-c2ccccc2C(=O)O)o1 property=inhibition unit_label=% observed_result=56.8
smiles_text=C[n+]1cc(C(=O)N2CCCCC2)ccc1/C=C/c1c[nH]c2ccccc12 property=inhibition unit_label=% observed_result=148
smiles_text=CC(C)C[C@@H](COc1ccccc1)N1CCN(C)CCC1=O property=inhibition unit_label=% observed_result=1.1
smiles_text=CCc1ccc(/C=C/c2c[nH]c3ccccc23)[n+](CC)c1 property=inhibition unit_label=% observed_result=2.5
smiles_text=CC1=C(C#N)c2nc(N)c(C#N)c(C)c2/C1=C\c1ccc(C)cc1 property=inhibition unit_label=% observed_result=15.6
smiles_text=Cc1ccc(N=C2NC(=O)/C(=C/c3cccn3C)S2)cc1C property=inhibition unit_label=% observed_result=2.1
smiles_text=C[n+]1ccc(/C=C/c2c[nH]c3ccccc23)cc1 property=inhibition unit_label=% observed_result=82.6
smiles_text=CCCCc1ccc(-c2csc(/C(C#N)=C/c3ccc(C)o3)n2)cc1 property=inhibition unit_label=% observed_result=0.2
smiles_text=CCCCc1ccc(-c2csc(/C(C#N)=C/c3ccco3)n2)cc1 property=inhibition unit_label=% observed_result=49.9
smiles_text=Cc1ccc(NC2=NCC(=O)N2c2ccc3c(c2)OCCO3)c(C)c1 property=inhibition unit_label=% observed_result=0.4
smiles_text=Cn1nc(-c2ccccc2)c(/C=N/O)c1Cl property=inhibition unit_label=% observed_result=-1.8
smiles_text=Cc1[nH]c2ccccc2c1/C=C/c1cc[n+](C)cc1 property=inhibition unit_label=% observed_result=144
smiles_text=COc1cc(C(=O)NCC(=O)N/N=C(/C)c2cccs2)cc(OC)c1OC property=inhibition unit_label=% observed_result=-1.2
smiles_text=Cc1cc(Sc2nc(N)ncc2[N+](=O)[O-])ncn1 property=inhibition unit_label=% observed_result=-1.5
smiles_text=CC(=O)Nc1ccc2c(c1)nc(CCN1CCN(C)CC1)n2C property=inhibition unit_label=% observed_result=-1.1
smiles_text=O=c1ccc(C(F)(F)F)cn1Cc1cc(=O)n2cc(Br)ccc2n1 property=inhibition unit_label=% observed_result=1.6
smiles_text=Cc1ccc(N=C2NC(=O)/C(=C\c3cccs3)S2)cc1C property=inhibition unit_label=% observed_result=1.6
smiles_text=OCC[n+]1ccc(/C=C/c2c[nH]c3ccccc23)cc1 property=inhibition unit_label=% observed_result=53
smiles_text=NC1=NC[C@H](CC2CCCCC2)N1CCc1cc(C(F)(F)F)cc(C(F)(F)F)c1 property=inhibition unit_label=% observed_result=0.6
smiles_text=O=C1CCC(C(=O)Nc2cc(C(F)(F)F)ccc2-n2cncn2)=NN1 property=inhibition unit_label=% observed_result=-0.2
smiles_text=Cc1cc(OCC(=O)NCc2cccnc2)c2c(C)c(Cc3ccccc3)c(=O)oc2c1 property=inhibition unit_label=% observed_result=1.1

###

- Assay Comment: inhibitors of HIV fusion peptide binding, primary screen, biochemical, uHTS, fluorescence dequenching (AID 1986)
- Protocol Conditions: cell-free peptide binding, 30 min, at 20 µM, stronger effect = higher value
Screen size: about 290,000 compounds; about 890 (0.31%) were called active. Shown is part of a subset that was picked to be rich in actives.
# inhibition annotations
Property: inhibition (%)

compound=O=C(O)c1cccc(-c2ccc(/C=c3/sc4nc5ccccc5n4c3=O)o2)c1 observed_result=78
compound=N#C/C(=C/c1ccc(-c2ccccc2)o1)c1nc(-c2cccs2)cs1 observed_result=62.6
compound=CN(C)c1ccc(/C=C2\SC(N3CCCCC3)=NC2=O)cc1 observed_result=74.1
compound=Cc1ccc(/C=C2\SC(N3CCCC3)=NC2=O)cc1 observed_result=-0.9
compound=O=C(O)c1cccc(-c2ccc(/C=N/n3cnnc3)o2)c1 observed_result=1.6
compound=Cc1ccc(/C=C2\SC(N3CCCCC3)=NC2=O)cc1 observed_result=-1.2
compound=CC1(C)OC(=O)C(=Cc2ccc(-c3ccc(Cl)c(C(=O)O)c3)o2)C(=O)O1 observed_result=36.9
compound=C=C1CCN([C@@H](C)C(=O)OCc2cccc(C)c2)S(=O)(=O)c2ccccc21 observed_result=1.3
compound="CC(Sc1ccccc1)C(=O)NCCc1ccccc1 (stereo unspecified)" observed_result=0.1
compound=COc1c2ccccc2c(OC)c2ccccc12 observed_result=1.5
compound=Cc1ccc(NC(=O)C2CCN(S(=O)(=O)c3ccc4c(c3)CCCC(=O)N4)CC2)c(Br)c1 observed_result=1.8

###

- Assay Comment: inhibitors of HIV fusion peptide binding, primary screen, biochemical, uHTS, fluorescence dequenching (AID 1986)
- Protocol Conditions: cell-free peptide binding, 30 min, at 20 µM, stronger effect = higher value
Out of some 290,000 compounds screened, about 890 (0.31%) were called active. The sample as a whole holds a higher share of actives than the screen did.
Please map values of inhibition to classes as shown: lower bin (below 40%), middle bin (40% to below 70%), upper bin (70% or more)

smiles_text=Cc1ccc(C(=O)NN2C(=O)/C(=C/c3cccn3C)SC2=S)cc1 class_label="lower bin"
smiles_text=Cn1cc(/C=C2\SC(=S)N(NC(=O)c3ccccc3)C2=O)c2ccccc21 class_label="upper bin"
smiles_text=Cc1ccc(S(=O)(=O)NC(=O)c2ccc(-c3ccc(C)c4ccccc34)o2)cc1 class_label="lower bin"
smiles_text=Cc1ccc(S(=O)(=O)NC(=O)c2ccc(-c3ccc(-c4ccccc4)cc3)o2)c(C)c1 class_label="middle bin"
smiles_text=Cc1ccc(C(=O)NN2C(=O)/C(=C/c3cn(C)c4ccccc34)SC2=S)cc1 class_label="upper bin"
smiles_text=Cn1cc(/C=C2\SC(=S)N(NC(=O)c3ccccc3Cl)C2=O)c2ccccc21 class_label="middle bin"
smiles_text=CC(/C=C1\SC(=S)N(CC(=O)O)C1=O)=C\c1ccccc1 class_label="lower bin"
smiles_text=Cn1cccc1/C=C1\SC(=S)N(NC(=O)c2ccccc2O)C1=O class_label="middle bin"
smiles_text=Cn1cccc1/C=C1\SC(=S)N(NC(=O)c2ccccc2)C1=O class_label="lower bin"

###

- Assay Comment: inhibitors of HIV fusion peptide binding, primary screen, biochemical, uHTS, fluorescence dequenching (AID 1986)
- Protocol Conditions: cell-free peptide binding, 30 min, at 20 µM, stronger effect = higher value
In all, about 290,000 compounds went through this assay and about 890 (0.31%) were called active. Only a selection was taken, and actives are over-represented in it overall.
# inhibition annotations
Property: inhibition (%)

smiles_text=COc1ccccc1/C=C/C=C1N=C(/C=C/c2ccc(Cl)cc2)OC/1=O property=inhibition unit_label=% observed_result=56.4
smiles_text=O=C(NC(=S)Nc1ccccc1[N+](=O)[O-])c1ccccc1 property=inhibition unit_label=% observed_result=-2.2
smiles_text=Oc1oc(-c2ccccc2Br)nc1C=Nc1ccc(Br)cn1 property=inhibition unit_label=% observed_result=-0.2
smiles_text=O=C(O)Cn1c2c(c3ccccc31)CSc1ccc(Cl)cc1-2 property=inhibition unit_label=% observed_result=54.6
smiles_text=O=C(COC(=O)c1ccc2c(c1)C(=O)N(Cc1ccco1)C2=O)NCC(F)(F)F property=inhibition unit_label=% observed_result=1.5
smiles_text=O=C(O)Cn1c2ccccc2c2ccccc21 property=inhibition unit_label=% observed_result=-1

###

- Assay Comment: inhibitors of HIV fusion peptide binding, primary screen, biochemical, uHTS, fluorescence dequenching (AID 1986)
- Protocol Conditions: cell-free peptide binding, 30 min, measured here: repeat confirmation average inhibition, at 18.6 µM, stronger effect = higher value
Hit rate of the full screen: of about 290,000 compounds, about 890 (0.31%) were called active. Only a selection was taken, and actives are over-represented in it overall.
If the reported inhibition equals or exceeds 50%, assign Satisfied. If not, assign Not satisfied.

smiles_text=O=C1NC(=S)S/C1=C\c1cc2ccccc2nc1N1CCCCC1 class_label="Not satisfied"
smiles_text=COc1cc2c(cc1OC)-c1cc3ccc4c(c3c[n+]1CC2)OCO4 class_label=Satisfied
smiles_text=Cc1ccc(N=Cc2c(O)n(-c3nccs3)c(=O)c3ccccc23)c(C)c1 class_label=Satisfied
smiles_text=Oc1c(Br)cc(/C=N/n2c(-c3ccccc3)n[nH]c2=S)cc1Br class_label="Not satisfied"
smiles_text=Cc1c(Br)c(O)c(Br)c(O)c1/C=N/n1c(-c2ccccc2)n[nH]c1=S class_label="Not satisfied"

###

- Assay Comment: inhibitors of HIV fusion peptide binding, primary screen, biochemical, uHTS, fluorescence dequenching (AID 1986)
- Protocol Conditions: cell-free peptide binding, 30 min, at 20 µM, stronger effect = higher value
Hit rate of the full screen: of about 290,000 compounds, about 890 (0.31%) were called active. The full list was thinned out, with actives kept by preference.
# inhibition annotations
Property: inhibition (%)

compound=O=C(COc1ccc(Br)cc1Cl)NC(=S)Nc1ccccn1 property=inhibition unit_label=% observed_result=-1.1
compound=COc1ccc(CC(=O)N/N=C/c2ccc(-c3cccc(C(=O)O)c3)o2)cc1OC property=inhibition unit_label=% observed_result=28.8
compound=CCOc1ccc(N(C)C(=O)CCc2nnc3ccc(N4CCC5(CC4)OCCO5)nn23)cc1 property=inhibition unit_label=% observed_result=0.1
compound=Clc1ccccc1/C=N/NC1=Nc2cccc3cccc1c23 property=inhibition unit_label=% observed_result=51.2
compound=COc1cc(OC)c(OC)cc1CNCCNC(=O)c1ccco1 property=inhibition unit_label=% observed_result=1.1
compound=O=C(NC(=S)Nc1ccc(CN2CCCCC2)cc1)c1ccco1 property=inhibition unit_label=% observed_result=0.8
compound=C(=N\NC1=Nc2cccc3cccc1c23)/c1ccccc1 property=inhibition unit_label=% observed_result=20.5
compound=COc1ccc(-n2c(C)cc(/C=C3\C(=N)N4N=C(CC(=O)N5CCOCC5)SC4=NC3=O)c2C)cc1 property=inhibition unit_label=% observed_result=20.1
compound="O=C(NC1CCCC1)C(c1cccs1)N(C(=O)c1csnn1)c1ccccc1F (stereo unspecified)" property=inhibition unit_label=% observed_result=0.9
compound="CCOc1cccc(C2/C(=C(/O)c3ccc4c(c3)CC(C)O4)C(=O)C(=O)N2CCCn2ccnc2)c1 (stereo unspecified)" property=inhibition unit_label=% observed_result=-2.5
compound=Cc1ccc(NC(=O)CN2C(=O)S/C(=C\c3ccc(-c4cccc(C(=O)O)c4C)o3)C2=O)cc1C property=inhibition unit_label=% observed_result=68.7
compound=O=C1Nc2ccccc2Oc2cc([N+](=O)[O-])ccc21 property=inhibition unit_label=% observed_result=13
compound=Cc1ccc(NC(=O)CN2C(=O)S/C(=C/c3ccc(-c4cccc(C(=O)O)c4)o3)C2=O)cc1 property=inhibition unit_label=% observed_result=79.5
compound=O=C1Nc2ccccc2Oc2cc([N+](=O)[O-])cc(Oc3ccccc3)c21 property=inhibition unit_label=% observed_result=59.7
compound=Cc1cccc(Oc2cc([N+](=O)[O-])cc3c2C(=O)Nc2ccccc2O3)c1 property=inhibition unit_label=% observed_result=46.8
compound=c1ccc(C2=Nc3c(ccc4ccccc34)C(c3ccncc3)=NN2)cc1 property=inhibition unit_label=% observed_result=-3
compound="CC(CCc1ccccc1)NC(=O)CSc1cccc[n+]1[O-] (stereo unspecified)" property=inhibition unit_label=% observed_result=2.5
compound=Cc1ccc(NC(=O)CN2C(=O)S/C(=C/c3ccc(-c4cc(C(=O)O)ccc4C)o3)C2=O)cc1C property=inhibition unit_label=% observed_result=63.2
compound=COc1cc(/C=C2\SC(c3ccc(C)cc3)=NC2=O)ccc1O property=inhibition unit_label=% observed_result=36.7
compound=COc1cccc(/C=c2\s/c(=C/C(=O)c3ccc(C)cc3)[nH]c2=O)c1OC property=inhibition unit_label=% observed_result=4.7
compound=Cc1ccc(Oc2cc([N+](=O)[O-])cc3c2C(=O)Nc2ccccc2O3)cc1 property=inhibition unit_label=% observed_result=40.9
compound=Cc1ccc(C)c(N2CCN(C(=O)CCCn3c(=S)[nH]c4cc5c(cc4c3=O)OCO5)CC2)c1 property=inhibition unit_label=% observed_result=-4.3
compound=COc1ccc(/C=c2\s/c(=C/C(=O)c3ccc(C)cc3)[nH]c2=O)c(OC)c1 property=inhibition unit_label=% observed_result=47.8
compound=CC(C)(C)OC(=O)CN1C(=O)S/C(=C\c2ccc(-c3cccc(C(=O)O)c3)o2)C1=O property=inhibition unit_label=% observed_result=51.8
compound="CCOC(=O)C1=C(COC(=O)C2(C)CC2(Cl)Cl)NC(=O)NC1c1ccccc1 (stereo unspecified)" property=inhibition unit_label=% observed_result=-1.7
compound=COc1ccc2sc(/C=C/c3ccccc3O)[n+](C)c2c1 property=inhibition unit_label=% observed_result=69.1
compound="Cc1ccc(CN(C(=O)c2ccccc2[N+](=O)[O-])C2CCS(=O)(=O)C2)o1 (stereo unspecified)" property=inhibition unit_label=% observed_result=0.4
compound=Cc1ccc(C(=O)O)cc1-c1ccc(/C=C2\SC(=O)N(CC(=O)Nc3ccccc3)C2=O)o1 property=inhibition unit_label=% observed_result=59.6
compound=Cc1cccc(NC(=O)CN2C(=O)N/C(=C/c3ccc(-c4cccc(C(=O)O)c4C)o3)C2=O)c1 property=inhibition unit_label=% observed_result=28.4
compound=Cc1cccc(NC(=O)CN2C(=O)N/C(=C\c3ccc(-c4cccc(C(=O)O)c4)o3)C2=O)c1 property=inhibition unit_label=% observed_result=40.3
compound=c1ccc2c(c1)nc(CN1CCOCC1)n1c3ccccc3nc21 property=inhibition unit_label=% observed_result=2.2
compound=Cc1ccc2c(c1)NC(=O)c1cc([N+](=O)[O-])ccc1O2 property=inhibition unit_label=% observed_result=2.5
compound=COc1cc(CNCc2ccccc2Cl)ccc1OCC(=O)NC1CCCCC1 property=inhibition unit_label=% observed_result=0.7
compound=COc1ccc(/C=C2/SC(c3ccc(C)cc3)=NC2=O)cc1OC property=inhibition unit_label=% observed_result=0.3
compound=O=C(c1cc(S(=O)(=O)N2CCCCC2)ccc1Cl)N1CCOCC1 property=inhibition unit_label=% observed_result=0.1
compound=O=c1c2cccc3c(N4CCOCC4)ccc(c32)c2nc3ccccc3n12 property=inhibition unit_label=% observed_result=113
compound=O=[N+]([O-])c1cccc(S(=O)(=O)c2ccc(N3CCCCC3)c([N+](=O)[O-])c2)c1 property=inhibition unit_label=% observed_result=2.4
compound=O=c1c2ccc([N+](=O)[O-])c3cccc(c32)c2nc3ccccc3n12 property=inhibition unit_label=% observed_result=10.2
compound=Cc1cc(C)c(NC(=O)CCCSc2nnc(N)s2)c(C)c1 property=inhibition unit_label=% observed_result=-0.5
compound=COc1ccc2sc(C)[n+](C)c2c1 property=inhibition unit_label=% observed_result=-2.6
compound=CCN(CC)S(=O)(=O)c1ccc2c(c1)nc(SCC(N)=O)n2-c1ccc(OC)cc1 property=inhibition unit_label=% observed_result=-1.3
